Value source: paper PMC7503767

Test system: Adult S. mansoni
EXPERIMENT: In vitro antischistosomal activity on adult worms
Format: cell-based, Schistosoma mansoni
TEST CONDITIONS: 100 µg/mL, observation up to 8 h (Table S1)
OBSERVATION TYPE: Mean (±SD) survival time – Adult S. mansoni (h)
Numbers only, in h.

Worked cases, answers included:
- CCOP(=O)(OCC)C(N(OC(C)c1ccc(C(=O)OC)cc1)C(C)(C)C)C(C)(C)C (stereo not drawn) [(RS/SR)-1x]: 2.4
- CC(ON1C(C)(C)CCCC1(C)C)c1ccncc1 (stereo not drawn): 3.0
- CCOP(=O)(OCC)C(N(OC(C)c1ccc(N)cc1)C(C)(C)C)C(C)(C)C (stereo not drawn) [(RR/SS)-1w]: 2.1
- CCOP(=O)(OCC)C(N(OC(C)c1ccc2ccc3cccnc3c2n1)C(C)(C)CO)C(C)(C)C (stereo not drawn): 1.0

Now consider the entry below.
# input I'm curious: which Mean (±SD) survival time – Adult S. mansoni was measured for CCOP(=O)(OCC)C(N(OC(CN)c1ccccc1)C(C)(C)C)C(C)(C)C (stereo not drawn) [(RS/SR)-1A] tested on Adult S. mansoni?
# output 1.0

---

Give measured Mean (±SD) survival time – Adult S. mansoni for each item. Keep answers brief.
Test system: Adult S. mansoni
EXPERIMENT: In vitro antischistosomal activity on adult worms
Assay type: cell-based, Schistosoma mansoni
TEST CONDITIONS: 100 µg/mL, observation up to 8 h (Table S1)

Consider the reported Mean (±SD) survival time – Adult S. mansoni for these compounds:
• CCOP(=O)(OCC)C(N(OC(C)c1ccccc1)C(C)(C)CO)C(C)(C)C (centres unmarked) [(RS/SR)-2z] = > 8 h
• CCOP(=O)(OCC)C(N(OC(C)c1cccnc1)C(C)(C)CO)C(C)(C)C (centres unmarked) = > 8 h
• CCOP(=O)(OCC)C(N(OC(C)c1ccc(N)cc1)C(C)(C)C)C(C)(C)C (centres unmarked) [(RS/SR)-1w] = > 8 h
• CC(ON1C(C)(C)CCCC1(C)C)c1ccccc1 (centres unmarked) = > 8 h

Let us move to another entry and its Mean (±SD) survival time – Adult S. mansoni.
# input Recorded Mean (±SD) survival time – Adult S. mansoni for CCOP(=O)(OCC)C(N(OC(C)c1cc[n+]([O-])cc1)C(C)(C)C)C(C)(C)C (centres unmarked) [(RR/SS)-1d] , please?
# output > 8 h
